- PROTOCOL_DESCRIPTION: Volume distribution in monkey at 0.4 mg/kg, iv
- Format: ADME, organism-based, Macaca mulatta
- Set-up: dose 0.4 mg/kg, route intravenous
- RUN_PARAMETERS: rhesus monkey, in vivo, read-out: Vdss
ENDPOINT: Vd (L/kg)
Express your answer in L/kg, writing the number without its unit.

Item N[C@H](C(=O)N1CC(c2cc(F)ccc2F)=C[C@H]1c1ccccc1)C1CC1 has what recorded Vd?
7.4

###

- PROTOCOL_DESCRIPTION: Plasma clearance in dog at 0.4 mg/kg, iv
- Assay type: ADME, organism-based, Canis lupus familiaris
- Parameters: dose 0.4 mg/kg, route intravenous
ENDPOINT: clearance (mL/min/kg)
Give your result in mL/min/kg as a bare value.

Entry under review: N[C@H](C(=O)N1CC(c2cc(F)ccc2F)=C[C@H]1c1ccccc1)C1CC1 . Reported clearance?
23

###

- TARGET: Voltage-gated inwardly rectifying potassium channel KCNH2 (Homo sapiens, UniProt Q12809)
- Sequence (Q12809 whole entry): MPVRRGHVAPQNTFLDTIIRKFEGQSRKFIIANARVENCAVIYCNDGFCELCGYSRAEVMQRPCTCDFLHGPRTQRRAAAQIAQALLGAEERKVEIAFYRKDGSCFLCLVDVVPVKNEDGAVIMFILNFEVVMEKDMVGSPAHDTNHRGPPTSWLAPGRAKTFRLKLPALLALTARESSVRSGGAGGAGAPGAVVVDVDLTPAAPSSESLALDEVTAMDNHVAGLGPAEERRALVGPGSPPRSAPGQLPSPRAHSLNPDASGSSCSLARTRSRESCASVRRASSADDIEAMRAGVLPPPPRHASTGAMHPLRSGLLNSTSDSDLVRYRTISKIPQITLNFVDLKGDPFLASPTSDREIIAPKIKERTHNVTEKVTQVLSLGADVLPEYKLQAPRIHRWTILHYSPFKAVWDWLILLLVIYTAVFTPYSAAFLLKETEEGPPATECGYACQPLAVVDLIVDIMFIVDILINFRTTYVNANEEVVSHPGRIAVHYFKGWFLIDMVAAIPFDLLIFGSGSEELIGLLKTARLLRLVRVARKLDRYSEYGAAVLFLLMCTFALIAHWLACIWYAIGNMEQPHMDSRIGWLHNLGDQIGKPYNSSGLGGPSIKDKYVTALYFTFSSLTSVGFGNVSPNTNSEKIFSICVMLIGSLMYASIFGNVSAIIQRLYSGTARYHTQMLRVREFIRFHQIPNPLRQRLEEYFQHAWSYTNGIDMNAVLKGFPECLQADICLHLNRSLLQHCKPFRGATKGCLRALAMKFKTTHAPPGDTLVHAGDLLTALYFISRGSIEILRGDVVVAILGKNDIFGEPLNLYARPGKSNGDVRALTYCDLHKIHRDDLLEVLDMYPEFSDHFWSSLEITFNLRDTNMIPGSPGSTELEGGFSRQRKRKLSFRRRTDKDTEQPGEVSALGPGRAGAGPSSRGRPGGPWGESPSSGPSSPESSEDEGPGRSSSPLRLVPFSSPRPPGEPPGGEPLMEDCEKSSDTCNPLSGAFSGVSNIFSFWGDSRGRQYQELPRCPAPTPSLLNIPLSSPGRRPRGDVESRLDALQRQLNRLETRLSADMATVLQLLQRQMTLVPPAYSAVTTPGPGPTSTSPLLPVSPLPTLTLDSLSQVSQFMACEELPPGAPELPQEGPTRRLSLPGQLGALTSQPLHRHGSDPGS
- PROTOCOL_DESCRIPTION: Inhibitory activity against human hERG receptor expressed in HEK cells
ENDPOINT: pIC50
# pIC50: negative log10 of molar concentration; output just the value

Could you tell me which pIC50 is on file for O=C([C@@H](O)C1CC1)N1CC(c2cc(F)ccc2F)=C[C@H]1c1ccccc1 ?
4.96

###

- PROTOCOL_DESCRIPTION: Volume distribution in rat at 1 mg/kg, iv
- Type: ADME, organism-based
- Design: dose 1 mg/kg, route intravenous
- RUN_PARAMETERS: in vivo, read-out: Vdss
ENDPOINT: Vd (L/kg)
The reply should contain only the number, in L/kg.

For the compound N[C@H](C(=O)N1CC(c2cc(F)ccc2F)=C[C@H]1c1ccccc1)C1CC1 , what Vd is on record?
4.4

###

Provide the reported log10(IC50) of each item.
Each number you see is log10 of IC50, and the unit inside the log is nM.

Find log10(IC50) (Kinesin-like protein KIF11 (Homo sapiens)) for the entry CN(CCCN)C(=O)N1CC(c2cc(F)ccc2F)=C[C@H]1c1ccccc1
1.20

So what log10(IC50) did CC(=O)N1CC(c2cc(F)ccc2F)=CC1c1ccccc1 (racemic) get with Kinesin-like protein KIF11 (Homo sapiens)?
3.60

Tell me reported log10(IC50) for CC(=O)N1CCC(N(C)C(=O)N2CC(c3cc(F)ccc3F)=C[C@H]2c2ccccc2)CC1 , tested with Kinesin-like protein KIF11 (Homo sapiens).
Sequence (P52732 whole entry): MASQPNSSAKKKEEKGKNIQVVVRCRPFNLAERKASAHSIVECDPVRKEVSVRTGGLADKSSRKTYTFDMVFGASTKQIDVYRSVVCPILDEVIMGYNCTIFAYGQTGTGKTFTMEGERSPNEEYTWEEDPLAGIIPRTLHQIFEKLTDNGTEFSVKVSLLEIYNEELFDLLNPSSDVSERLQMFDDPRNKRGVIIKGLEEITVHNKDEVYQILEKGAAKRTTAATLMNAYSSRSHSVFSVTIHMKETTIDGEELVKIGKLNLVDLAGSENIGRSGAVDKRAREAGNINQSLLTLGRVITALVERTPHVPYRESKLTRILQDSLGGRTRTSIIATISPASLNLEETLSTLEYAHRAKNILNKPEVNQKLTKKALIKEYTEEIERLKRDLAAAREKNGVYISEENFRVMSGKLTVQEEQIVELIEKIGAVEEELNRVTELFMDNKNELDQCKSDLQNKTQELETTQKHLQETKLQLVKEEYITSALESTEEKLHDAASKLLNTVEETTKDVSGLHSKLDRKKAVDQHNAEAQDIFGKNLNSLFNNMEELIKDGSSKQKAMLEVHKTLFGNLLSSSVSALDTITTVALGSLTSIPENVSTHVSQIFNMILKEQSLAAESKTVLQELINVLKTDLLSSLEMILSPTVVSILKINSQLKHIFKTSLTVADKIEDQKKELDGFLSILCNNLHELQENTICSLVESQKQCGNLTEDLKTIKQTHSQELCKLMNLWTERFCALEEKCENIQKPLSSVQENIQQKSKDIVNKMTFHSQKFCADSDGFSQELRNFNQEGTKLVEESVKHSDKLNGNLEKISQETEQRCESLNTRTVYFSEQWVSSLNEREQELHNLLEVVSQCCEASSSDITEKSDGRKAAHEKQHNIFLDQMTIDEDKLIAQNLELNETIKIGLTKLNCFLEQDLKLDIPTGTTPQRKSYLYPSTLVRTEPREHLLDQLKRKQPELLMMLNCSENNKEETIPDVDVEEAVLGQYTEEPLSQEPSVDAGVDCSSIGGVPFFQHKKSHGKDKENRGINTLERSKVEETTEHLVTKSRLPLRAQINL
1.70

Observed log10(IC50) on Kinesin-like protein KIF11 (Homo sapiens) for CC(C)(C)C(=O)N1N=C(c2cc(F)ccc2F)CC1c1ccccc1 (racemic) , please.
2.05

Field: log10(IC50) (Kinesin-like protein KIF11 (Homo sapiens)). Entry: O=C([C@@H](O)C1CC1)N1CC(c2cc(F)ccc2F)=C[C@H]1c1ccccc1
1.04

Give the reported log10(IC50) for CC(C)(CN)C(=O)N1CC(c2cc(F)ccc2F)=C[C@H]1c1ccccc1 (system: Kinesin-like protein KIF11 (Homo sapiens)).
0.72

# returns recorded log10(IC50) (system: Kinesin-like protein KIF11 (Homo sapiens)) for CC(C)(C)[C@H](N)C(=O)N1CC(c2cc(F)ccc2F)=C[C@H]1c1ccccc1
0.43

Enter reported log10(IC50) observed with Kinesin-like protein KIF11 (Homo sapiens) for CC(C)(C)[C@H](NC(=O)OCCO)C(=O)N1CC(c2cc(F)ccc2F)=C[C@H]1c1ccccc1
0.87

// lookup log10(IC50) | system=Kinesin-like protein KIF11 (Homo sapiens) | key= CC(C)[C@H](N)C(=O)N1CC(c2cc(F)ccc2F)=C[C@H]1c1ccccc1
0.56
